Assay target: α2 receptor (Rattus norvegicus)
Construct: plasmic membranes of rat brains; from tissue; host or cells: rat brain plasma membranes
Sequence (P22909 1-465): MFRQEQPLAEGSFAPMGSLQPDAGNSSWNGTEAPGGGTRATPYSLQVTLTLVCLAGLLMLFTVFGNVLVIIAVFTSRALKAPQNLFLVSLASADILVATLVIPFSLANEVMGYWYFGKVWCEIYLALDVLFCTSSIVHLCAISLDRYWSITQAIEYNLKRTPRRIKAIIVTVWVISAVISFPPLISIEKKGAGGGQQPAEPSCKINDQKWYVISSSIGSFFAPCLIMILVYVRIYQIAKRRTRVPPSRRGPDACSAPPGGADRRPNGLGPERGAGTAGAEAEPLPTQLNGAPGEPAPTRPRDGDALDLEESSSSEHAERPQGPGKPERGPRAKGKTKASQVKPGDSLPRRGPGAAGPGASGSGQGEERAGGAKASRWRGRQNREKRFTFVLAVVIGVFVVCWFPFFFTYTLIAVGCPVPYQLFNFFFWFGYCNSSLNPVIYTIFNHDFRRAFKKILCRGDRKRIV
Test protocol: Displacement of 3H clonidine, plasmic membranes of rat brains
Format: binding
Conditions used: in vitro
Assay endpoint: affinity for the receptor with clonidine (α2)

CC(Cc1c[nH]c2ccc(Cl)cc12)NCC(O)COc1ccc(CC(N)=O)cc1 (centres unmarked); no affinity
CC(Cc1c[nH]c2ccccc12)NCC(O)COc1ccccc1[N+](=O)[O-] (centres unmarked); no affinity
Cc1cccc(OCC(O)CNC(C)Cc2c[nH]c3ccccc23)c1 (centres unmarked); no affinity
CC(Cc1c[nH]c2ccccc12)NCC(O)COc1ccccc1Cl (centres unmarked); no affinity

With those in mind, consider the next compound.
Given NC(=O)Cc1ccc(OCC(O)CNCCc2c[nH]c3ccccc23)cc1 (centres unmarked) , respond with its affinity for the receptor with clonidine (α2).
no affinity

---

Assay target: β adrenergic receptors (β2) (Canis lupus familiaris)
Construct: The dog is anaesthetized using sodium pentobarbital; from tissue; host or cells: whole anaesthetized dog (vasculature)
Sequence (P54833 whole entry): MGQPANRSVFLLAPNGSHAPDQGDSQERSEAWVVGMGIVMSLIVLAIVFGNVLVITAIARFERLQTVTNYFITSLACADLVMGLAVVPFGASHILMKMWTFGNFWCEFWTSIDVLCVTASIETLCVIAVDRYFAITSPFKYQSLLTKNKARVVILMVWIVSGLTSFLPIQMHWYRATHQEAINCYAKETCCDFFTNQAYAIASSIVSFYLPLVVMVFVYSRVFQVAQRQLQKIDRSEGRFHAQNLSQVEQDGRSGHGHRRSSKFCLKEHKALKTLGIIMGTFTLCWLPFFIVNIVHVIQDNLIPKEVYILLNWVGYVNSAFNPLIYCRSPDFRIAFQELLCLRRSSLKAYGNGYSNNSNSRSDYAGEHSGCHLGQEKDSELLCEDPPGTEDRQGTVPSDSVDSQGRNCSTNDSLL
Test protocol: Antagonism of the effects of isoprenaline, hypotension (β2), anaesthetized dog, IV
Assay type: in vivo
Conditions used: iv, read-out: ID50 ISOPRENALINE β2
Could you please report measured ED50 for the items listed next?

CC(Cc1c[nH]c2ccccc12)NCC(O)COc1ccccc1[N+](=O)[O-] (centres unmarked) [compound 7808]; 1 mg/kg
CCC(=O)c1ccc(OCC(O)CNC(C)Cc2c[nH]c3ccccc23)c(Cl)c1 (centres unmarked) [compound 7743]; ≥ 3 mg/kg
CC(Cc1c[nH]c2ccccc12)NCC(O)COc1ccccc1Cl (centres unmarked) [compound 7806]; ≥ 0.1 mg/kg
Cc1ccccc1OCC(O)CNC(C)Cc1c[nH]c2ccc(F)cc12 (centres unmarked) [compound 7983]; > 0.3 mg/kg

Given CC(Cc1c[nH]c2ccccc12)NCC(O)COc1ccccc1C#N (centres unmarked) [compound 7824] , respond with its ED50.
≥ 0.3 mg/kg

---

Assay target: β adrenergic receptors (β1) (Canis lupus familiaris)
Construct: The dog is anaesthetized using sodium pentobarbital; from tissue; host or cells: whole anaesthetized dog (heart)
Sequence (P79148 whole entry): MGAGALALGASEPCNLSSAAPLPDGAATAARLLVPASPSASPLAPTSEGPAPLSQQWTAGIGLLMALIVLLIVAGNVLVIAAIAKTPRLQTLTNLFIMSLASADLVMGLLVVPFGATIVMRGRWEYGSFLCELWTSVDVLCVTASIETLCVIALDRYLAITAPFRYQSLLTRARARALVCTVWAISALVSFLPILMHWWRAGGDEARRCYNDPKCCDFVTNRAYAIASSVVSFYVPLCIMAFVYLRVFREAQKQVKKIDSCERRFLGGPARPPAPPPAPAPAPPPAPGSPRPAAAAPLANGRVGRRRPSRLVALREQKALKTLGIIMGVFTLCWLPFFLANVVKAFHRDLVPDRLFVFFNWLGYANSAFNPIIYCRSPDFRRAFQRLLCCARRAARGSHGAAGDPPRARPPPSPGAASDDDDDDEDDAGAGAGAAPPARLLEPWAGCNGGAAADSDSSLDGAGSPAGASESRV
Test protocol: Antagonism of the effects of isoprenaline, tachycardia (β1), anaesthetized dog, IV
Assay type: in vivo
Conditions used: dog, iv, read-out: ID50 ISOPRENALINE β1
Could you please report measured ED50 for the items listed next?
Numbers only, in mg/kg.

Cc1ccccc1OCC(O)CNC(C)Cc1c[nH]c2ccc(F)cc12 (stereo not drawn); 0.3
CCCC(=O)Nc1ccc(OCC(O)CNC(C)Cc2c[nH]c3ccccc23)c(C(C)=O)c1 (stereo not drawn); 1
Cc1ccccc1OCC(O)CNC(C)Cc1c[nH]c2ccccc12 (stereo not drawn); 0.1
CC(Cc1c[nH]c2ccccc12)NCC(O)COc1ccccc1C#N (stereo not drawn); 0.3
CC(Cc1c[nH]c2ccccc12)NCC(O)COc1ccccc1[N+](=O)[O-] (stereo not drawn); 0.3

Quick batch: ED50 for everything below.
1. CC(Cc1c[nH]c2ccc(F)cc12)NCC(O)COc1ccccc1 (stereo not drawn)
2. CC(Cc1c[nH]c2ccccc12)NCC(O)COc1cccc2[nH]ccc12 (stereo not drawn)

1. 0.1
2. 0.01

Data origin, for the record: patent US4404217A
